Values were extracted from patent US9682925B2.

# system_under_test: MAO-A (Homo sapiens)
Where a name gives a salt, the structure may show the parent alone.

{"compound": "CCCCCCCCN[C@@H]1C[C@H]1c1ccc(NC(=O)c2cccc(Br)c2)cc1 (relative stereo)", "IC50": "> 10 µM"}
{"compound": "CN1CCC(CN[C@@H]2C[C@H]2c2ccc(NC(=O)c3cccc(C(F)(F)F)c3)cc2)CC1 (relative stereo) [Example 155, dihydrochloride]", "IC50": "> 10 µM"}
{"compound": "O=C(Nc1ccc([C@@H]2C[C@H]2NC2CCN(CC(F)(F)F)CC2)cc1)c1ccc(-c2ccccc2)cc1 (relative stereo) [Example 63, hydrochloride]", "IC50": "> 10 µM"}
{"compound": "O=C(Nc1ccc([C@@H]2C[C@H]2NCC2CC2)cc1)c1cccc(Cn2ccnc2)c1 (relative stereo) [Example 146, hydrochloride]", "IC50": "6.7 µM"}
{"compound": "Cc1cc(C(=O)Nc2ccc([C@@H]3C[C@H]3NCC3CC3)cc2)nn1C (relative stereo) [Example 157, dihydrochloride]", "IC50": "> 10 µM"}
{"compound": "O=C(Nc1ccc([C@@H]2C[C@H]2NC2CCN(c3ccccc3)CC2)cc1)c1cccc(C(F)(F)F)c1 (relative stereo) [Example 75, dihydrochloride]", "IC50": "> 10 µM"}
{"compound": "COc1ccc(CN[C@@H]2C[C@H]2c2ccc(NC(=O)c3ccc(-c4ccccc4)cc3)cc2)cc1OC (relative stereo)", "IC50": "> 10 µM"}
{"compound": "O=C(N[C@H](Cc1ccccc1)C(=O)Nc1ccc(C2CC2NCc2ccccc2)cc1)OCc1ccccc1 (stereo in doubt) [Example 58, hydrochloride]", "IC50": "> 10 µM"}
{"compound": "O=C(Nc1ccc([C@@H]2C[C@H]2NCC2CC2)cc1)c1cn[nH]c1 (relative stereo) [Example 79, hydrochloride]", "IC50": "> 10 µM"}
{"compound": "O=C(Nc1ccc([C@@H]2C[C@H]2NCC2CC2)cc1)c1ccc(-c2ccccc2)cc1 (single isomer, unassigned) [Example 59, hydrochloride]", "IC50": "7.1 µM"}
{"compound": "O=C(Nc1ccc([C@@H]2C[C@H]2NCC2CC2)cc1)c1cccc(OC(F)(F)F)c1 (relative stereo) [Example 109, hydrochloride]", "IC50": "> 10 µM"}
{"compound": "O=C(Nc1ccc([C@@H]2C[C@H]2NCC2CC2)cc1)c1cc(-c2ccccc2)[nH]n1 (relative stereo)", "IC50": "> 10 µM"}
{"compound": "CN1CCC(N[C@H]2C[C@@H]2c2ccc(NC(=O)c3cccc(C(F)(F)F)c3)cc2)CC1 (single isomer, unassigned) [Example 152, dihydrochloride]", "IC50": "> 10 µM"}
{"compound": "O=C(Nc1ccc([C@@H]2C[C@H]2NC2CCOCC2)cc1)c1ccc(-c2ccccc2)cc1 (relative stereo) [Example 61, hydrochloride]", "IC50": "2.2 µM"}
{"compound": "CC(C)(C)CN[C@@H]1C[C@H]1c1ccc(NC(=O)c2ccccc2)cc1 (relative stereo)", "IC50": "> 10 µM"}
{"compound": "CN(C)c1ccc(CN[C@@H]2C[C@H]2c2ccc(NC(=O)c3cccc(C(F)(F)F)c3)cc2)cc1 (relative stereo) [Example 110, dihydrochloride]", "IC50": "> 10 µM"}
{"compound": "CS(=O)(=O)c1ccc(C(=O)Nc2ccc([C@@H]3C[C@H]3NCC3CC3)cc2)cc1 (relative stereo)", "IC50": "> 10 µM"}
{"compound": "O=C(Nc1ccc([C@@H]2C[C@H]2NCc2cccnc2)cc1)c1ccccc1 (relative stereo) [Example 12, bis(trifluoroacetate)]", "IC50": "4.7 µM"}
{"compound": "O=C(Nc1ccc([C@@H]2C[C@H]2NCC2CC2)cc1)c1cc(-c2ccccc2)cs1 (relative stereo) [Example 137, hydrochloride]", "IC50": "4.2 µM"}

* * *

# system_under_test: human LSD1(171-852) (Homo sapiens)
# Construct: to give hLSD1(171-852) purified product; made in house; host or cells: Escherichia coli C43(DE3) pLysS
# experimental_protocol: Measurement of LSD1 inhibitory activity (time-resolved fluorescence, biotin-histone H3 mono methylated K4 peptide)
# Assay type: biochemical
# reported_conditions: read-out: LSD1 IC50 value
pIC50: −log10 of the molar value. Where a name gives a salt, the structure may show the parent alone.
List of pIC50 values.
readout_type: pIC50

{"compound": "O=C(Nc1ccc([C@@H]2C[C@H]2NC2CCOCC2)cc1)c1ccc(-c2ccccc2)cc1 (relative stereo) [Example 61, hydrochloride]", "system_under_test": "human LSD1(171-852) (Homo sapiens)", "observed_result": "> 7.00"}
{"compound": "Cc1cc(C2CC2NCC2CC2)ccc1NC(=O)c1ccccc1 (stereo not drawn) [Example 81, hydrochloride]", "system_under_test": "human LSD1(171-852) (Homo sapiens)", "observed_result": "> 7.00"}
{"compound": "Cn1cc(C(=O)Nc2ccc([C@@H]3C[C@H]3NCC3CC3)cc2)c(C(F)(F)F)n1 (relative stereo) [Example 158, hydrochloride]", "system_under_test": "human LSD1(171-852) (Homo sapiens)", "observed_result": "> 7.00"}

* * *

Hi! I'm sharing some IC50 results obtained with UniProt:P21397.
Where a name gives a salt, the structure may show the parent alone.
readout_type: IC50

{"molecule": "O=C(Nc1ccc([C@@H]2C[C@H]2N(CC2CC2)CC2CC2)cc1)c1ccc(-c2ccccc2)cc1 (relative stereo) [Example 60, hydrochloride]", "readout_type": "IC50", "observed_result": "> 10 µM"}
{"molecule": "CS(=O)(=O)Nc1ccc(C(=O)Nc2ccc([C@@H]3C[C@H]3NCC3CC3)cc2)cc1 (relative stereo) [Example 135, hydrochloride]", "readout_type": "IC50", "observed_result": "> 10 µM"}
{"molecule": "O=C1c2ccccc2CN1c1ccc([C@@H]2C[C@H]2NCC2CC2)cc1 (relative stereo) [Example 144, hydrochloride]", "readout_type": "IC50", "observed_result": "> 10 µM"}
{"molecule": "O=C(Nc1ccc([C@@H]2C[C@H]2NC2CCN(Cc3ccccc3)CC2)cc1)c1cccc(C(F)(F)F)c1 (relative stereo) [Example 74, dihydrochloride]", "readout_type": "IC50", "observed_result": "> 10 µM"}
{"molecule": "O=C(Nc1ccc([C@@H]2C[C@H]2NCC2CC2)cc1)c1cccc(C(F)(F)F)c1 (relative stereo) [Example 65, hydrochloride]", "readout_type": "IC50", "observed_result": "8.6 µM"}
{"molecule": "O=C(Nc1ccc([C@@H]2C[C@H]2NC2CCN(Cc3ccccc3)CC2)cc1)c1ccc(-c2ccccc2)cc1 (relative stereo)", "readout_type": "IC50", "observed_result": "> 10 µM"}
{"molecule": "Cn1ncc(C(=O)Nc2ccc([C@@H]3C[C@H]3NCC3CC3)cc2)c1C(F)(F)F (relative stereo) [Example 159, hydrochloride]", "readout_type": "IC50", "observed_result": "> 10 µM"}
{"molecule": "Cc1ccc(-c2ccc(C(=O)Nc3ccc([C@@H]4C[C@H]4NCC4CC4)cc3)cc2)cc1 (relative stereo)", "readout_type": "IC50", "observed_result": "> 10 µM"}
{"molecule": "O=C1c2ccccc2C(=O)N1c1ccc([C@@H]2C[C@H]2NCC2CC2)cc1 (relative stereo) [Example 143, hydrochloride]", "readout_type": "IC50", "observed_result": "4.5 µM"}
{"molecule": "O=C(Nc1ccc([C@@H]2C[C@H]2NC2CCCCCC2)cc1)c1ccccc1 (relative stereo)", "readout_type": "IC50", "observed_result": "> 10 µM"}

* * *

# system_under_test: MAO-A (Homo sapiens, UniProt P21397)
# Sequence (P21397 whole entry): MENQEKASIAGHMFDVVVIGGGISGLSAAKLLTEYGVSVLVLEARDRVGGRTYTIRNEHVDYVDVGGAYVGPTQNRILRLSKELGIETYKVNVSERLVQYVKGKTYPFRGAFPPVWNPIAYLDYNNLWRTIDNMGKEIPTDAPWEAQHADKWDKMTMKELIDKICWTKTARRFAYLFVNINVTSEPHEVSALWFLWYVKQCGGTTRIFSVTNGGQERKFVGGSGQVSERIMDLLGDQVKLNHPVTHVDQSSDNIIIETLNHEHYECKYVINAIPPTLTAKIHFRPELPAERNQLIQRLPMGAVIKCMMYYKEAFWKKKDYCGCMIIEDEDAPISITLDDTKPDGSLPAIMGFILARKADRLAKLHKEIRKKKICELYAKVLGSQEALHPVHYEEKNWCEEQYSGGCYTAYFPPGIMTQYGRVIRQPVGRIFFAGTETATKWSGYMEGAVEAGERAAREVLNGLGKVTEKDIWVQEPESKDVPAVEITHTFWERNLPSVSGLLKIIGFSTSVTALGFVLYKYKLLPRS
Where a name gives a salt, the structure may show the parent alone.
List of IC50 values.

{"compound": "NS(=O)(=O)c1cccc(C(=O)Nc2ccc([C@@H]3C[C@H]3NCC3CC3)cc2)c1 (relative stereo) [Example 145, hydrochloride]", "system_under_test": "MAO-A (Homo sapiens, UniProt P21397)", "inequality_symbol": ">", "IC50 [µM]": 10}
{"compound": "COc1ccc(CN[C@@H]2C[C@H]2c2ccc(NC(=O)c3ccc(-c4ccccc4)cc3)cc2)cc1 (relative stereo) [Example 43]", "system_under_test": "MAO-A (Homo sapiens, UniProt P21397)", "inequality_symbol": "=", "IC50 [µM]": 3.3}
{"compound": "O=C(Nc1ccc([C@@H]2C[C@H]2NCc2ccccc2)cc1)c1cccc(OCc2ccccc2)c1 (relative stereo) [Example 11, hydrochloride]", "system_under_test": "MAO-A (Homo sapiens, UniProt P21397)", "inequality_symbol": "=", "IC50 [µM]": 2.4}
{"compound": "CN(C)c1ccccc1CN[C@@H]1C[C@H]1c1ccc(NC(=O)c2cccc(C(F)(F)F)c2)cc1 (relative stereo) [Example 142, hydrochloride]", "system_under_test": "MAO-A (Homo sapiens, UniProt P21397)", "inequality_symbol": ">", "IC50 [µM]": 10}
{"compound": "O=C(Nc1ccc([C@H]2C[C@@H]2NCC2CC2)cc1)c1ccc(-c2ccccc2)cc1 (single isomer, unassigned) [Example 165, hydrochloride]", "system_under_test": "MAO-A (Homo sapiens, UniProt P21397)", "inequality_symbol": ">", "IC50 [µM]": 10}
